Experiment: soluble fraction after stress (log2 fold change); higher = more stays soluble; pooled small domains, quantitative proteomics;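 further: 20 min heating vs room temperature control held 20 min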
Conditions: stress: 75 degC
// false (0) strictly below -0.1 in soluble fraction (log2); true (1) otherwise

input: Exam item: decide whether the reported soluble fraction (log2) for HMSSIVLTARSGRAALAYRVKSIGVDLSKDQLDLVYKTFLGFADKKKEIIDTDIPQILKASGI is at least -0.1.
output: false (0)

input: Exam item: decide whether the reported soluble fraction (log2) for HMKPSTVSVPDVSGDKLSTAKMIIRKSGLKVGDVQKIEDDNVGAGKVVRTNPSAGSKKREGSSVDIFVASA is at least -0.1.
output: true (1)

input: Exam item: decide whether the reported soluble fraction (log2) for HMNIEANLEDILRRAMPSAAKLILENSLNINKIIGTGKEGRITKGDVLLYLKDKNLILENILN is at least -0.1.
output: true (1)

input: Exam item: decide whether the reported soluble fraction (log2) for HMTYVSVSNYIGTNVDKAKGELESQGLVVLLEEQKTEDKSQDGMVLKQTIEGGTKVSSGSRITLIYGRYT is at least -0.1.
output: true (1)

input: Exam item: decide whether the reported soluble fraction (log2) for HMSQLSDEQELRDIARGIIEGNPNEAEKYRAGRTGLLGFFVGKLMAETEGKANPRLASRILKELLE is at least -0.1.
output: false (0)

input: Exam item: decide whether the reported soluble fraction (log2) for HMSTGGDLTQRERELLGLMARGLSNQEISKRLTIAMPTVKFHVTNILAKLHADNRTEAVLVALKNKLVAL is at least -0.1.
output: false (0)

input: Exam item: decide whether the reported soluble fraction (log2) for HMQGNGKVATELLKDIIASDNLYINAMRMLVMHYNSKGTNQVEMVKLLHNILDLVPDDEYANEILKSAKKA is at least -0.1.
output: true (1)

input: Exam item: decide whether the reported soluble fraction (log2) for HMRDAKSQLQEALQKSGRLPEYELVSVEGPPHAPVFTYRVRIDGAVVGEGQGASKQAAQQAAAQSALKSG is at least -0.1.
output: true (1)

input: Exam item: decide whether the reported soluble fraction (log2) for HMRKIVEGVLTKKEGKWYLLTDIETYKISDASAEYHKAELNDRASALIPAQNPKVPFASLEKVFN is at least -0.1.
output: false (0)

input: Exam item: decide whether the reported soluble fraction (log2) for HMSVISVETAKSKALAHAGLTASKVTFIENKLEWDDGRQVYDIEFYTSDYKEYDYTIDAVSGQVLEFDY is at least -0.1.
output: false (0)

input: Exam item: decide whether the reported soluble fraction (log2) for HMTYADTRDLLIRRGMELLTEQGIAATSIERVLQSTGIPKGSFYHYFATKHDFTLAVMDAYHHY is at least -0.1.
output: false (0)

input: Exam item: decide whether the reported soluble fraction (log2) for HMAVLGIQPVFHRSTGQTVYKSSVNTAKGRVYLGLFPTLTEALEIKLKYMQEHGHTKGITNLTNKLKEL is at least -0.1.
output: false (0)

input: Exam item: decide whether the reported soluble fraction (log2) for HMHETMGQIIKRLRKERGLTQESLAERLGVTFQAVSKWETDAGMPDVSQIVPLANAFGVRTDVLFGLEGRD is at least -0.1.
output: false (0)

input: Exam item: decide whether the reported soluble fraction (log2) for HMITVPKVINMSETQARQTLDALGLNVTLSATQVMNDKIPYGYVAAQSYSAGKEVPAGTTIELTMSIGL is at least -0.1.
output: false (0)

input: Exam item: decide whether the reported soluble fraction (log2) for HMSGMEKLAIQEIEKEIKSFVKGDILIELTGKNRATAYVSEKNVGALIGKKGERINSIEKRLGVGIDVRPY is at least -0.1.
output: false (0)

input: Exam item: decide whether the reported soluble fraction (log2) for HMPHITDAEWEVMRVVWANHHVTSKEVISILEDKMNWKATTIKTLLGRLVEKGALSTEQDGKKFIYTAR is at least -0.1.
output: false (0)

input: Exam item: decide whether the reported soluble fraction (log2) for HMRRISLEDWQLIESLIRRDWSPEQISLWLKKYKKIRVSHEWIYQYILKDKSKAGDLHTHLRSR is at least -0.1.
output: true (1)

* * *

Assay: soluble fraction after stress (log2 fold change); higher = more stays soluble; pooled small domains, quantitative proteomics
Conditions: stress: 75 degC
Can you tell me soluble fraction (log2) for the items I'm about to list?
In your answer, state the number alone without any accompanying words.

For record HMEDKPITKEQKQAMFALLREHFSGDEGNAVYTAVLEREGLAPGDKIMSSVYDRLIDGINEAIRQKLEAGA the listed soluble fraction (log2) is -0.0206

For record HMTTQTGTVKWFNEGKGFGFIAPDDGGKDLFAHFKEIQGTGFKTLAENQRVEFEVTQGQKGPQASKI the listed soluble fraction (log2) is -0.0331

For record HMGFSDDEHNALADADLKKALEVTTNKSETQYNIAKLIYSYIISLGDKKPYGDWSYDKALSIIHDA the listed soluble fraction (log2) is -0.0187

For record HMRGFGEVGQLPSGRYRARYTGPDGGRHSAPITFVARIDAEGWLVDQERMISRGEWEPPARQ the listed soluble fraction (log2) is -0.238

For record HMHPDALTEREREVLSLLADGLSNREIAARLVLALGTVKWYISVIYSKLGVTRRTQAIARARELHLV the listed soluble fraction (log2) is -0.0116

For record HMQSFIEELLPVVDNFERSLAVVDPSDEIKNFLKGYEMIYNQLMEVLKSQGVEVIKTEGEEFDPNFHQA the listed soluble fraction (log2) is -0.121

For record HMRRSVYQANVLDAIKHLVDQNELATTKAIAEYIGDDYQGNVSRAIRELLADRKIKKLPKVGVLQPYEA the listed soluble fraction (log2) is -0.442

For record HMALYSEQVSEIEKALMSLPPKYQLVMLLLYAEDLKYEQIAEILDEPIGTVKTKIHRARKILKERF the listed soluble fraction (log2) is -0.147

For record HMDRVDGWLHDGKLYLRVVDYKTGKKSFDLAELRYGLGLQMLLYLFTLKEEGQMLFGGHEIVPAGVL the listed soluble fraction (log2) is -0.514

For record HMTPELTAEEREVLSLLGDEPRTLAELIAASGRDYAALSVLLMGLELSQAVRQLPGNRYERF the listed soluble fraction (log2) is -0.84

For record HMLEQISDINILSGYAKEVIAENPKTVSDYLSGKAAAFQALVGQVMKKTGGRGNPVIIQEILKRLIHKK the listed soluble fraction (log2) is -0.0597

For record HMAEPAEDLLSLEGMDKGLAYQLASNGVVTREDLAELATDDLLEIREMDAEQAAALIMKAREHWFEAEQQ the listed soluble fraction (log2) is 0.755

For record HMQVTDTGTIEGEIDKVLAANPDRVTEYHDGKEKILGWFVGQVMQTTKGKANPQMVNQLFLEKLK the listed soluble fraction (log2) is 0.0105

For record HMGQKASEVEKIFVELQQQIIRGDLPPGYRLVESQIAAQFGVSRTPARLAIERLATAGLVAHETNRGATVH the listed soluble fraction (log2) is -0.823

For record HMRQNPESFLNHKVKKNESLESLTKKYELTENEIIFYNPLIQKIGLKKRMILKIPIYNNQNLVTKSVD the listed soluble fraction (log2) is -0.15

For record HMDDERDRLVQQAMEGLSPALREILLLAYFQRMPYNQIAESLRIPLGTVKSRLHAAVAAFAKRWQELNRS the listed soluble fraction (log2) is -0.77

For record HMFSMKDFGQRLRQLRKERGLTQGDLARLAKIDIMQVSRYERGLGLPSLETAIALARVLETSTDLLFLG the listed soluble fraction (log2) is -3.52

* * *

Test: soluble fraction after stress (log2 fold change); higher = more stays soluble; pooled small domains, quantitative proteomics
Conditions: stress: 75 degC
measuredEndpoint: soluble fraction (log2)

For record HMQMTTPQMVPLFTDLSVDDSASIIKDLERQAVPYQIKSDGAIIMVPKDKVTRLRMKLAESGLPK the listed soluble fraction (log2) is 0.488

For record HMRIAQYRQIENDLLEQINLGYYKKGDLIPTELELSATYHVSRVTVRKATDNLVAKGILQRVAGVGTFVSR the listed soluble fraction (log2) is -3.14

For record HMTPVSQIATKDIEEKIDSLSDEYKDPFILHFKGFKYKEIADQLDIPIGTVKSRIFIARKKLIDLLPDY the listed soluble fraction (log2) is 0.0524

For record HMEPREALDGLISERGETYASISRLLGRNSAYIQQFIKRGSPARLDQSDIALLALHFDVPVEMLGGKE the listed soluble fraction (log2) is -0.588

For record HMDPLPDEVQEVIDMVDGFKAMDELSEADKADVKAAYDAYNALSAEHKAMVPEHIVTFLNRAYDKLFD the listed soluble fraction (log2) is 0.159

For record HMEISLAETLRSSLHMILGWYQNTGDKKLLELIRLHLQAYVNTGNSLNPEMEEIRAALETLGEGKEAFRP the listed soluble fraction (log2) is -2.35

For record HMKFNEKQNEVRIAIMNFIIDNKRPFHMKQDGYDALEGITLSGRHEFQDILDVLHSRDGFSADEEGNINF the listed soluble fraction (log2) is -1.09

For record HMDDENKIEVMINEEKVQLTGKDKYVFVDIFNYIDMDLTRIHGNLVLKLNGENASHNSLLKSGDKIEARWE the listed soluble fraction (log2) is -0.746
